B1: F1*; the commonest letter at each place (parent)
chain: GAGACCGCAACTGAAAAGTTGTTATCACTTGTCGTAAGACACTTTGGATGGGTTGAAGTTCTGCACGTAGAAGCAAAAGGC

Variants of: B1
EXPERIMENTAL_PROTOCOL: fraction ligated after 30 min (ligated reads / total reads); higher = more ligase activity
SETUP_CONDITIONS: with F1*sub RNA substrate (template-directed ligation), 42 °C
MEASURED_METRIC: fraction ligated

SEQUENCE_CHANGE	MEASURED_METRIC	OBS_VALUE
C42G T49A	fraction ligated	0.79
T35G A36G	fraction ligated	0.845
C26G G34A	fraction ligated	0.357
C26A G34C	fraction ligated	0.805
A24G C42T	fraction ligated	0.802

Lookup: Any idea what fraction ligated was measured for A24G A41C ?
Found: 0.034

Lookup: Do the same for G31C G55A please
Found: 0.809

Lookup: Do the same for T25G C33A please
Found: 0.526

Lookup: Do the same for G34C T44A please
Found: 0.816

Lookup: Do the same for G34A G55T please
Found: 0.811

Lookup: Do the same for T30C T32A please
Found: 0.817

Lookup: Do the same for T30G G46C please
Found: 0.776

Lookup: Do the same for T32G A57T please
Found: 0.814

Lookup: Do the same for C26A T45A please
Found: 0.366

Lookup: Do the same for T32C T44C please
Found: 0.756

Lookup: Do the same for T35G A56G please
Found: 0.791

Lookup: Do the same for A41T A57G please
Found: 0.807

Lookup: Do the same for T25G C28T please
Found: 0.675

Lookup: Do the same for G46C G55A please
Found: 0.804

Lookup: Do the same for A48G G55A please
Found: 0.787

Lookup: Do the same for A27G G38C please
Found: 0.798

Lookup: Do the same for C26A G47T please
Found: 0.235

Lookup: Do the same for A27C T45G please
Found: 0.116

Lookup: Do the same for T30C T49C please
Found: 0.0166

Lookup: Do the same for G31A T45G please
Found: 0.137

Lookup: Do the same for C28G G47T please
Found: 0.591

Lookup: Do the same for C40G G50C please
Found: 0.134

Just for reference, the supplement of paper PMC6755084 is where these values come from.
